# systemName: T1, human TL1A extracellular domain with N-terminal HIS and FLAG tag (human, UniProt O95150 72-251)
# T1 construct: the whole entry is named; also called TNFSF15
# T1 sequence: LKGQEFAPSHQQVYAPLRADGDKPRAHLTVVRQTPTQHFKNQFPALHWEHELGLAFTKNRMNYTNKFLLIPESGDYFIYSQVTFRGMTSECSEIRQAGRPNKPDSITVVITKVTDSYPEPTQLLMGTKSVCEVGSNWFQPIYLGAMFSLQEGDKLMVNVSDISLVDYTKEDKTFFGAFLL
# measurementDescription: SPR Run 7, antibody on Protein A, TL1A 5 ug/mL, timepoint 44

- binder: "320-551 (antibody, human IgG1, name in Kabat numbering, V domains shown, full-length human IgG1, lambda) VH: QVQLVQSGAEVKKPGASVKVSCKASGYTFTSYDINWVRQAPGQGLEWMGWLNPNSGNDGYAQKFQGRVTMTADRSTSTAYMELSSLRSEDTAVYYCAREVPETAAFEYWGQGTLVTVSS VL: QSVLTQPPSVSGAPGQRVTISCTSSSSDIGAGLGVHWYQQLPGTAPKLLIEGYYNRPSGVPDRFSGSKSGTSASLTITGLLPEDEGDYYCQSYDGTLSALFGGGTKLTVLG"
  TL1A Binding Level (Early), RU: 44
- binder: "320-501 (antibody, human IgG1, name in Kabat numbering, V domains shown, full-length human IgG1, lambda) VH: QVQLVQSGAEVKKPGASVKVSCKASGYTFTSYDINWVRQAPGQGLEWMGWLHPNSGNTGYAQKFQGRVTMTADRSTSTAYMELSSLRSEDTAVYYCAREVPETAAFEYWGQGTLVTVSS VL: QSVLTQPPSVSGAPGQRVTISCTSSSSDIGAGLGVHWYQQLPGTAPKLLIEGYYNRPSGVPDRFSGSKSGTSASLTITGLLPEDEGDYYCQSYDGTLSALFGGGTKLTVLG"
  TL1A Binding Level (Early), RU: 118
- binder: "320-539 (antibody, human IgG1, name in Kabat numbering, V domains shown, full-length human IgG1, lambda) VH: QVQLVQSGAEVKKPGASVKVSCKASGYTFTSYDINWVRQAPGQGLEWMGWLNPNSGATGYAQKFQGRVTMTADRSTSTAYMELSSLRSEDTAVYYCAREVPETAAFEYWGQGTLVTVSS VL: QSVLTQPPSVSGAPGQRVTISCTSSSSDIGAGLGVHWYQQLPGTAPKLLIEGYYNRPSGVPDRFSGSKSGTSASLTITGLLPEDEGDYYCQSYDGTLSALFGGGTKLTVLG"
  TL1A Binding Level (Early), RU: 172
- binder: "320-525 (antibody, human IgG1, name in Kabat numbering, V domains shown, full-length human IgG1, lambda) VH: QVQLVQSGAEVKKPGASVKVSCKASGYTFTSYDINWVRQAPGQGLEWMGWLNPNDGNTGYAQKFQGRVTMTADRSTSTAYMELSSLRSEDTAVYYCAREVPETAAFEYWGQGTLVTVSS VL: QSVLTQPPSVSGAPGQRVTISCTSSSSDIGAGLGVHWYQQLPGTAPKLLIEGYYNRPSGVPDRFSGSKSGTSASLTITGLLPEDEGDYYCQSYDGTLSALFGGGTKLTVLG"
  TL1A Binding Level (Early), RU: 33
- binder: "320-573 (antibody, human IgG1, name in Kabat numbering, V domains shown, full-length human IgG1, lambda) VH: QVQLVQSGAEVKKPGASVKVSCKASGYTFTSYDINWVRQAPGQGLEWMGWLNPNSGNTGYQQKFQGRVTMTADRSTSTAYMELSSLRSEDTAVYYCAREVPETAAFEYWGQGTLVTVSS VL: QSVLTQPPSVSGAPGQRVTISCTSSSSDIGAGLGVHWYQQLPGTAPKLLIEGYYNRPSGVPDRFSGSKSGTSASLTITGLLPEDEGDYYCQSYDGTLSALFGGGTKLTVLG"
  TL1A Binding Level (Early), RU: 67
